# Tested on: MV4-11 cells
# ASSAY SUMMARY: Cell proliferation assay (ATPlite)
# Assay type: cell-based
# MEASUREMENT PARAMETERS: Homo sapiens, 120 h; MV4-11 cells, five days; read-out: GI MV411 EC50
Where a name gives a salt, the structure may show the parent alone.
Let's look at some compounds and their measured log10(EC50).
Quick note: numbers are log10 of EC50, with µM as the unit.

COMPOUND	TEST SYSTEM	log10(EC50)
CC(C)[C@H]1CN(c2ncc(-c3c(F)cc(N4CCN(C)[C@@H](C)C4)c(NC(=O)c4c[nH]c(=O)cc4C(F)F)c3F)cn2)CCO1	MV4-11 cells	-1.80
C[C@@H]1CN(c2cc(F)c(-c3ccc4c(c3)OCO4)c(F)c2NC(=O)c2c[nH]c(=O)cc2C(F)(F)F)C[C@H](C)N1C	MV4-11 cells	-1.19
COc1cc(N2CCC=C(c3c(F)cc(N4CCN(C)[C@@H](C)C4)c(NC(=O)c4c[nH]c(=O)cc4C(F)F)c3F)C2)ncn1	MV4-11 cells	-0.65
C[C@H]1CN(c2ncc(-c3c(F)cc(N4CCN(C)[C@@H](C)C4)c(NC(=O)c4ccc(F)cc4C(F)(F)F)c3F)cn2)C[C@H](C)O1 [Example 166, Formic Acid Salt]	MV4-11 cells	-1.20
C[C@@H]1CN(c2cc(F)c(-c3cnc(N4C[C@H]5CC[C@@H](C4)O5)nc3)c(F)c2NC(=O)c2c[nH]c(=O)cc2C(F)(F)F)C[C@H](C)N1C	MV4-11 cells	-1.52
C[C@@H]1CN(c2cc(F)c(-c3ccc(C(N)=O)c(F)c3)c(F)c2NC(=O)c2c[nH]c(=O)cc2C(F)(F)F)C[C@H](C)N1C	MV4-11 cells	-0.83
C[C@H]1CN(c2ncc(-c3c(F)cc(N4CCN(C)[C@@H](C)C4)c(NC(=O)c4c[nH]c(=O)cc4C(F)F)c3F)cn2)CCO1	MV4-11 cells	-1.93
C[C@H]1CN(c2ncc(-c3c(F)cc(N4CCN(C)[C@@H](C)C4)c(NC(=O)c4cn(C)c(=O)cc4C(F)F)c3F)cn2)C[C@H](C)O1	MV4-11 cells	-0.60
COc1cnc(N2CCC=C(c3c(F)cc(N4CCN(C)[C@@H](C)C4)c(NC(=O)c4c[nH]c(=O)cc4C(F)F)c3F)C2)nc1	MV4-11 cells	-0.48
C[C@@H]1CN(c2cc(F)c(C3=CCN(c4ncc(F)cn4)C3)c(F)c2NC(=O)c2c[nH]c(=O)cc2C(F)(F)F)C[C@H](C)N1C	MV4-11 cells	-1.42

Which log10(EC50) is listed for C[C@@H]1CN(c2ncc(-c3c(F)cc(N4CCN(C)[C@@H](C)C4)c(NC(=O)c4c[nH]c(=O)cc4C(F)(F)F)c3F)cn2)C[C@@H](C)O1 ?
-1.99

Same read-out for COc1cnc(N2CC=C(c3c(F)cc(N4CCN(C)[C@@H](C)C4)c(NC(=O)c4c[nH]c(=O)cc4C(F)(F)F)c3F)C2)nc1 ?
-0.95

Would you kindly repeat that for C[C@@H]1CN(c2cc(F)c(-c3ccc(N4CCOCC4)c(F)c3)c(F)c2NC(=O)c2c[nH]c(=O)cc2C(F)(F)F)C[C@H](C)N1C ?
-0.91

Data provenance is patent US20200385371A1.
